System: gluten-reactive T cells
procedureDetails: Overnight IFNγ ELISpot assay with fresh PBMC
Type: cell-based, human
testSettings: Subject 10; after oral gluten challenge; Max. 11 SFU
Non-standard residues stand in square brackets, D forms with d. pGlu = O=C1CC[C@@H](C(=O)O)N1
So I've got a bunch of substances here, and I need their Percent of maximal response to individual gluten peptides, ELISp values.

Value of Percent of maximal response to individual gluten peptides, ELISp reported for the substance (pE)GQQGYYPTSPQQSG-amide ([pGlu]GQQGYYPTSPQQSG-NH2; SMILES C[C@@H](O)[C@H](NC(=O)[C@@H]1CCCN1C(=O)[C@H](Cc1ccc(O)cc1)NC(=O)[C@H](Cc1ccc(O)cc1)NC(=O)CNC(=O)[C@H](CCC(N)=O)NC(=O)[C@H](CCC(N)=O)NC(=O)CNC(=O)[C@@H]1CCC(=O)N1)C(=O)N[C@@H](CO)C(=O)N1CCC[C@H]1C(=O)N[C@@H](CCC(N)=O)C(=O)N[C@@H](CCC(N)=O)C(=O)N[C@@H](CO)C(=O)NCC(N)=O) [Peptide 10] is 9 % of max

Value of Percent of maximal response to individual gluten peptides, ELISp reported for the substance (pE)SGEGSFQPSQENPQ-amide ([pGlu]SGEGSFQPSQENPQ-NH2; SMILES NC(=O)CC[C@H](NC(=O)[C@@H]1CCCN1C(=O)[C@H](CC(N)=O)NC(=O)[C@H](CCC(=O)O)NC(=O)[C@H](CCC(N)=O)NC(=O)[C@H](CO)NC(=O)[C@@H]1CCCN1C(=O)[C@H](CCC(N)=O)NC(=O)[C@H](Cc1ccccc1)NC(=O)[C@H](CO)NC(=O)CNC(=O)[C@H](CCC(=O)O)NC(=O)CNC(=O)[C@H](CO)NC(=O)[C@@H]1CCC(=O)N1)C(N)=O) [Peptide 9] is 0 % of max

Value of Percent of maximal response to individual gluten peptides, ELISp reported for the substance (pE)QPPFSEQEQPVLPQ-amide (N-terminal pyroglutamate; C-terminal amide) [Peptide 13] is 0 % of max

Value of Percent of maximal response to individual gluten peptides, ELISp reported for the substance (pE)PEQPIPEQPQPYPQQ-amide ([pGlu]PEQPIPEQPQPYPQQ-NH2; SMILES CC[C@H](C)[C@H](NC(=O)[C@@H]1CCCN1C(=O)[C@H](CCC(N)=O)NC(=O)[C@H](CCC(=O)O)NC(=O)[C@@H]1CCCN1C(=O)[C@@H]1CCC(=O)N1)C(=O)N1CCC[C@H]1C(=O)N[C@@H](CCC(=O)O)C(=O)N[C@@H](CCC(N)=O)C(=O)N1CCC[C@H]1C(=O)N[C@@H](CCC(N)=O)C(=O)N1CCC[C@H]1C(=O)N[C@@H](Cc1ccc(O)cc1)C(=O)N1CCC[C@H]1C(=O)N[C@@H](CCC(N)=O)C(=O)N[C@@H](CCC(N)=O)C(N)=O) [Peptide 3] is 9 % of max

Value of Percent of maximal response to individual gluten peptides, ELISp reported for the substance (pE)PQPYPEQPQPFPQQ-amide ([pGlu]PQPYPEQPQPFPQQ-NH2; SMILES NC(=O)CC[C@H](NC(=O)[C@H](CCC(N)=O)NC(=O)[C@@H]1CCCN1C(=O)[C@H](Cc1ccccc1)NC(=O)[C@@H]1CCCN1C(=O)[C@H](CCC(N)=O)NC(=O)[C@@H]1CCCN1C(=O)[C@H](CCC(N)=O)NC(=O)[C@H](CCC(=O)O)NC(=O)[C@@H]1CCCN1C(=O)[C@H](Cc1ccc(O)cc1)NC(=O)[C@@H]1CCCN1C(=O)[C@H](CCC(N)=O)NC(=O)[C@@H]1CCCN1C(=O)[C@@H]1CCC(=O)N1)C(N)=O) [Peptide 8] is 27 % of max

Value of Percent of maximal response to individual gluten peptides, ELISp reported for the substance (pE)QPFPQPEQPFSQQ-amide ([pGlu]QPFPQPEQPFSQQ-NH2; SMILES NC(=O)CC[C@H](NC(=O)[C@H](CCC(N)=O)NC(=O)[C@H](CO)NC(=O)[C@H](Cc1ccccc1)NC(=O)[C@@H]1CCCN1C(=O)[C@H](CCC(N)=O)NC(=O)[C@H](CCC(=O)O)NC(=O)[C@@H]1CCCN1C(=O)[C@H](CCC(N)=O)NC(=O)[C@@H]1CCCN1C(=O)[C@H](Cc1ccccc1)NC(=O)[C@@H]1CCCN1C(=O)[C@H](CCC(N)=O)NC(=O)[C@@H]1CCC(=O)N1)C(N)=O) [Peptide 7] is 9 % of max
